Measured Fold enrichment over TTM-001 of individual entries
system: brain; experiment: Maturation of TTM-001 capsid, NGS enrichment in brain of CD-1 Outbred mice; assay type: in vivo; conditions: NGS fold-enrichment of TTM-001 matured AAV capsid variants in the brain of CD-1 Outbred mice; intravenous 1.0×10^12 VG/dose; 14 days in life; RNA; relative to non-matured TTM-001 control
Quantity measured: Fold enrichment over TTM-001 (fold)

>>> value("KTINGSGSPHSKRPFQQT")
2.076
>>> value("KTINGSGSPHSKRTYQQT")
2.870
>>> value("KTINGSGSPHSMYLNQQT")
2.000
>>> value("KTINGMRSPHVKAQNQQT")
2.937
>>> value("KTINGVLSPHRKAQNQQT")
2.868
>>> value("KTINGSGSPHSLRRNQQT")
4.985
>>> value("KTINGSGSPHSKARYVQT")
2.749
>>> value("KPRLGSGSPHSKAQNQQT")
2.406
>>> value("KTINGSGSPHSKAQLLKT")
2.985
>>> value("KTINGSGSPHSKARPYQT")
3.050
>>> value("KTINGYLSPHRKAQNQQT")
2.762
>>> value("KTINGSGSPHRRRQNQQT")
3.754
>>> value("KTINGRRSPHTKAQNQQT")
2.069
>>> value("KTINGSGSPHSKAQFVRT")
2.596
>>> value("KTINGSGSPHSKPRPQQT")
2.352
>>> value("KTINGSGSPHSRYSNQQT")
2.536
>>> value("KTINGSLSPHLCAQNQQT")
2.775
>>> value("KTINGVLSPHWKAQNQQT")
2.199
>>> value("KTINGSGSPHSKRASQQT")
2.173
>>> value("KTINGSGSPHIYRQNQQT")
2.782
>>> value("KTINGSGSPHSKPRLQQT")
3.337
>>> value("KTINGRQSPHTKAQNQQT")
2.294
>>> value("KTINGSGSPHSKASKRQT")
4.117
>>> value("KTINGSGSPHSKAQSWRT")
2.596
>>> value("KTINGSGSPHSKARLQQT")
2.089
>>> value("KTINGSGSPHSFITNQQT")
2.868
>>> value("KTINGSGSPHRTRQNQQT")
3.190
>>> value("KTINGSGSPHSKTCSQQT")
2.430
>>> value("KTINGVVSPHRKAQNQQT")
3.106
>>> value("KTINGSGSPHSKAQNEVH")
2.272
>>> value("KTINGSGSPHELPQNQQT (KTINGSGSPHFLPQNQQT)")
2.123
>>> value("KTINGSGSPHSKARLWQT")
2.914
>>> value("KTINGSTSPHLFAQNQQT (peptide inserted in AAV capsid)")
2.041
>>> value("KTINGSGSPHTRRQNQQT")
3.350
>>> value("KTINGSGSPHSKAQCYVT")
2.261
>>> value("KTINGSGSPHCSSQNQQT")
2.253
>>> value("KTINGSGSPHSKARGYQT")
2.492
>>> value("KTINGSGSPHSKAQLTVT")
4.026
>>> value("KTINGSGSPHSKAQSLKT")
2.110
>>> value("KTINGSGSPHSKSCAQQT")
2.348
>>> value("KTINGSRSPHFKAQNQQT (peptide inserted in AAV capsid)")
2.277
>>> value("KTINGSLSPHYMAQNQQT")
2.015
>>> value("KTINGSGSPHSLRSNQQT")
2.778
>>> value("KTINGSGSPHSKAQNRKL")
2.084
>>> value("KTINGSGSPHSKALRRQT")
4.330
>>> value("KTINGSGSPHSKVSRQQT")
2.108
>>> value("KTINGSGSPHSKRSWQQT")
3.838
>>> value("KTINGSGSPHSKAQRHAT")
2.264
>>> value("KTINGSGSPHSKAFPRQT")
3.220
>>> value("KTINGSGSPHSKAWLIQT")
2.499
>>> value("KTINGSGSPHTLWQNQQT")
2.168
>>> value("KTINGSGSPHSKAQLVLT")
2.508
>>> value("KTINGSGSPHSWSLNQQT")
2.523
>>> value("KTINGSGSPHSKAQIRLT")
3.279
>>> value("KTINGSGSPHSSLWNQQT")
3.179
>>> value("KTINGFRSPHSKAQNQQT")
2.333
>>> value("KTINGWRSPHSKAQNQQT")
2.160
>>> value("KTINGSGSPHSKIRPQQT")
2.080

###

system: brain, spinal cord, and DRG of the NHPs; assay: NGS fold enrichment of synthetic library (passage 3) in NHPs, first cross-species screen; assay type: in vivo, cynomolgus macaques (Macaca fascicularis); conditions: synthetic library passage 3, intravenous, RNA NGS, spinal cord of NHPs, relative to wild-type AAV9
Classification field: class 1 = Fold enrichment over AAV9 in the spinal cord of NHPs at or over 3 fold; class 0 = Fold enrichment over AAV9 in the spinal cord of NHPs under 3 fold.

>>> category_label("GSGYSMSQAQNQQT")
"class 1"
>>> category_label("GFSSAVHSGQNQQT")
"class 0"
>>> category_label("GSRDGHTVGQNQQT")
"class 1"
>>> category_label("GSGQIRHSDQNQQT")
"class 1"
>>> category_label("GSGQTRQMKDNQQT")
"class 1"
>>> category_label("GSLSSHGVGQNQQT")
"class 1"
>>> category_label("GSGQNRAHAFLQQT")
"class 0"
>>> category_label("GHHTTVQSGQNQQT")
"class 1"
>>> category_label("GVIVLHGSGQNQQT")
"class 1"
>>> category_label("GSGDTLHMLQNQQT")
"class 0"
>>> category_label("GSGQGPQERGNQQT")
"class 0"
>>> category_label("GSGQNQYSQSSMQT")
"class 1"
>>> category_label("GSSHRFYGGQNQQT")
"class 0"

###

Test system: brains, heart, liver, muscle, and DRG of the NHPs
Test: Maturation of TTM-001 and TTM-002 capsids, NGS enrichment in NHP tissues
Type: in vivo
Conditions: NHP DRG; NGS; relative to AAV9 control
Excerpt: This Example describes maturation of the AAV9 capsid variants, TTM-001 (SEQ ID NO: 981 (amino acid) and 983 (DNA), comprising SEQ ID NO: 941 (encoded by SEQ ID NO: 942)) and TTM-002 (SEQ ID NO: 982 (amino acid) and 984 (DNA), comprising SEQ ID NO: […] (encoded by SEQ ID NO: 944)) in NHPs to further enhance their transduction and biodistribution in the central nervous system as well as other tissues, and evolve the AAV capsid variants to provide further cross-species compatibility. […]
Quantity measured: Fold Enrichment relative to AAV9, DRG (NHP) (fold)

>>> value("KTINGSGSPHLRWQNQQT")
0.000
>>> value("KTINGSGSPHSKARWQQT")
0.000
>>> value("KTINGSGSPHSFRPNQQT")
0.000
>>> value("KTINGSGSPHSCHQNQQT")
0.000
>>> value("KTINGSGSPHYRYQNQQT")
0.000
>>> value("KTINGSGSPHSGKRNQQT")
0.000
>>> value("KTINGSGSPHSKRVVQQT")
0.000
>>> value("KTINGSGSPHSKTRKQQT")
0.000
>>> value("KTINGSGSPHSSCTNQQT")
0.000
>>> value("KTINGSGSPHSKRHRQQT")
0.000
>>> value("KTINGSGSPHVYHQNQQT")
0.000
>>> value("KTINFTRSPHSKAQNQQT")
0.000
>>> value("KPRFGSGSPHSKAQNQQT")
0.000
>>> value("KTINHRISPHSKAQNQQT")
0.000
>>> value("KTINGSGSPHSVKKNQQT")
0.000
>>> value("KTINGSISPHCPAQNQQT")
0.000
>>> value("KTINGSGSPHVNCQNQQT")
0.000
>>> value("KTINGSGSPHSRMRNQQT")
0.000
>>> value("KTINGSGSPHSRCPNQQT")
0.000
>>> value("KTINGSGSPHSKALRCQT")
0.000
>>> value("KRYNGSGSPHSKAQNQQT")
0.000
>>> value("KTINGSGSPHLVYQNQQT")
0.000
>>> value("KTINGSGSPHSLCLNQQT")
0.000

###

test system: brains, heart, liver, muscle, and DRG of the NHPs; test: Maturation of TTM-001 and TTM-002 capsids, NGS enrichment in NHP tissues; type: in vivo; settings: NGS fold-enrichment of RNA, NHP brain, relative to AAV9 control
Classification field: true = Fold Enrichment relative to AAV9, Brain (NHP) at or over 80 fold; false = Fold Enrichment relative to AAV9, Brain (NHP) under 80 fold.

>>> category_label("KTVNGSGSPHSKTQSQQT")
"true"
>>> category_label("KTVNGHDSPHKSRQSQQT")
"false"
>>> category_label("KTINGHESPHKSGQNIQP")
"true"
>>> category_label("KTEKVSGSPHSKAQNQQT")
"true"
>>> category_label("KTSNGHDSPHKSGQNQPA")
"false"
>>> category_label("KTINGHDSPHKTGQNQQK")
"false"
>>> category_label("TTINGSGSPHSKAQNQQT (peptide inserted in AAV capsid)")
"true"
>>> category_label("KTNNGHDSPHKSVQNQHT")
"true"
>>> category_label("KTIDGHDSPHKSGQNQHA")
"true"
>>> category_label("KTINGHDSPHKSNAWQQT")
"true"
